Values from the array DNA melting data of Ke et al. (doi:10.1101/2024.01.08.574731)

Experiment: melting temperature; fluorescence melt of hairpins on a sequencing array, two-state fit, raised by 9.35 °C to match UV melts
Conditions: sodium 0.088 M
Respond with fulfilled for Tm values of 40 °C and above, not fulfilled for values below.

>>> print(df.to_string())
                         sequence_content  class_assignment
 0      GATCAGCGAGCTGATC ((((((....))))))         fulfilled
 1        GATCCGAGTCGGATC ((((((...))))))         fulfilled
 2      GATCTACCTTTAGATC ((((((....))))))     not fulfilled
 3  GTAACGTCGAAAGACTAC (((..(((....))))))     not fulfilled
 4  GGGCATGGAAACATACCC (((.(((....))).)))         fulfilled
 5    GCAGGCCGAAAGGCTGC (((.(((....))))))         fulfilled
 6  GCCCAGCGAAAGCCAGGC (((..((....))..)))         fulfilled
 7  GCGAAGGGAAACTTTCGC (((((.(....).)))))         fulfilled
 8      GTTTAGGAAACTAAAC ((((((....))))))         fulfilled
 9  GCACGGCGAAAGCCCCGC ((..(((....)))..))     not fulfilled
10  CGGTCGGAAACGATTCCG ((((((....)))..)))         fulfilled
11      GATCGTCTCAACGATC ((((((....))))))         fulfilled

----------
Test: melting temperature; fluorescence melt of hairpins on a sequencing array, two-state fit, raised by 9.35 °C to match UV melts
Details: sodium 0.088 M
MEASURED ATTRIBUTE: Tm (°C)

>>> print(df.to_string())
                        sequence_content  endpoint_value
0              GCGTTAAAACGC ((((....))))            50.3
1  GCTCAGCGAAAGCAGCGC ((.(.((....)).).))            49.4
2  GGTGAAGCGAAAGCTACC (((..(((....))))))            40.5
3  GTAGTGGGAAACTACTGC (.(((.(....).))).)              46
4      GATCATACAGATGATC ((((((....))))))            44.4
5      GCCTTTGAAAAAAGGC ((((((....))))))            59.2

----------
Experiment: melting temperature; fluorescence melt of hairpins on a sequencing array, two-state fit, raised by 9.35 °C to match UV melts
Conditions: sodium 0.088 M
MEASURED ATTRIBUTE: Tm

In [3]: df
Out[3]:
                         sequence_content  endpoint_value
 0      GTAGGAGAAATCCTAC ((((((....))))))         47.3 °C
 1      GATCAGTCTCCTGATC ((((((....))))))         49.4 °C
 2      GATCTACCCTTAGATC ((((((....))))))         41.8 °C
 3  GATTGGGGAAACCCAACC (.(((((....))))).)         36.7 °C
 4      GATCCTTACTAGGATC ((((((....))))))         52.4 °C
 5        GATCTTTATAAGATC ((((((...))))))           44 °C
 6  GCGTTGCGAAAGCCGCGC (((..((....))..)))         63.3 °C
 7  GAAGACCCGAAAGGGTTC (((..(((....))))))         32.6 °C
 8  GACAACGAAAGTTCGGTC ((((((....)))..)))         30.7 °C
 9  GGTCCTGGAAACAGGGTC (..((((....))))..)         37.8 °C
10  GTAGGTGGAAACGCCTAC (((((.(....).)))))         51.9 °C
11    GCACTCGAAAGAGATGC ((((((....))).)))         49.4 °C

----------
Assay: melting temperature; fluorescence melt of hairpins on a sequencing array, two-state fit, raised by 9.35 °C to match UV melts
Conditions: sodium 0.088 M
Respond with label 1 for Tm values of 60 °C and above, label 0 for values below.

                        sequence_content  class_assignment
0  GTAACCGAAAGGTGCTAC ((((((....)))..)))           label 0
1              GCGTGCTTACGC ((((....))))           label 0
2    GTCCGCGAAAGCGTGAC ((((((....))).)))           label 0
3  GGTTGGGGAAACCCGACC (((.(((....))).)))           label 0
4      GCGATTGAAAAATCGC ((((((....))))))           label 1
5  CGCACGCGGAAACGCGCG (((..(((....))))))           label 0

----------
folding enthalpy values by entry
Test: folding enthalpy; higher = less favourable; fluorescence melt of hairpins on a sequencing array, two-state fit
Conditions: sodium 0.088 M
MEASURED ATTRIBUTE: folding enthalpy (kcal/mol)

>>> df
                         sequence_content  unit_descriptor  endpoint_value
 0  GGTCGCGAAAGCGAGACC ((((((....)))..)))         kcal/mol           -13.5
 1  GTTTCCGAAAGGAATAAC ((((((....)))..)))         kcal/mol             -12
 2  GAAAATACGAAAGTATTC (((..(((....))))))         kcal/mol           -13.7
 3  CGTGCGGAAACGCTTACG ((((((....)))..)))         kcal/mol           -22.6
 4  GCAAGACGAAAGTCGTGC (((.(((....))).)))         kcal/mol           -32.2
 5    GACTTCCGAAAGGAGTC (((.(((....))))))         kcal/mol           -24.8
 6  GCTCGGCGAAAGCCTTGC ((..(((....)))..))         kcal/mol           -11.4
 7  GTACGCCGAAAGGCCTAC (((.(((....))).)))         kcal/mol           -10.9
 8  GTCTGCGAAAGCAATGAC ((((((....)))..)))         kcal/mol           -16.8
 9  GGATGAGGAAACCCATCC (((((.(....).)))))         kcal/mol           -30.3
10  GTGACGCCGAAAGGCCAC (((..(((....))))))         kcal/mol           -11.8
11  GTAGAGGGAAACCTTTAC (((.(((....))).)))         kcal/mol           -28.7

----------
Experiment: melting temperature; fluorescence melt of hairpins on a sequencing array, two-state fit, raised by 9.35 °C to match UV melts
Conditions: sodium 0.088 M
# Tm binned as interval 1: < 40 °C; interval 2: ≥ 40 °C and < 50 °C; interval 3: ≥ 50 °C

>>> df
                        sequence_content  class_assignment
0  GCTGAGCGAAAGCTGTGC ((..(((....)))..))        interval 2
1  GTATACGAAAGTATCTAC ((((((....)))..)))        interval 1
2  CGAACGGAAACGTCGTCG ((((((....)))..)))        interval 2
3  GGGTACGAAAGTAAACCC ((((((....)))..)))        interval 2
4          ATATCGAAAGATAT (((((....)))))        interval 2
5  CGTTCGGAAACGAAGACG ((((((....)))..)))        interval 1
6      GATCCCTTATGGGATC ((((((....))))))        interval 3
7  GTACCCGGAAACGGATAC (((.(((....))).)))        interval 2
8          ACATCGAAAGATGT (((((....)))))        interval 3
9  GAGGCCGAAAGGCGACTC ((((((....)))..)))        interval 2
